System: CCRF-SB
Procedure Text: Cytotoxicity against human CCRF-SB cells after 96 hrs by MTT assay
Type: functional
Simple rule here: CC50 less than 9 µM is Y, otherwise N.

The following compounds have reported results that may help.
> print(dat)
                           molecular.string  cat
1  O=[N+]([O-])c1ccc(NC(=S)Nc2cccc(C(F)(F)F)c2)cc1    Y
2  COc1cccc2c1C(=O)c1c(O)c3c(c(O)c1C2=O)C[C@@](O)(C(=O)CO)C[C@@H]3O[C@H]1C[C@H](N)[C@H](O)[C@H](C)O1    Y
3    N#Cc1ccc(NC(=S)Nc2cccc(C(F)(F)F)c2)cc1    Y
4     FC(F)(F)c1cccc(NC(=S)Nc2ccc(Cl)cc2)c1    N
5     FC(F)(F)c1cccc(NC(=S)Nc2cccc(Cl)c2)c1    N

Now, please, on to the next compound.
Say whether its CC50 is strictly beneath 9 µM. Entry: Fc1ccc(NC(=S)Nc2cccc(C(F)(F)F)c2)cc1Cl
N
